Reference for the values: paper PMC7156724

# experiment summary: Metabolic stability assay, rat liver microsomes
# condition description: rat, liver microsomes, pH 7.4
quantity measured: half-life at 1 µM
Write the quantity with the unit trailing the number.

Problem: If you can, please state the reported half-life at 1 µM value of Cc1nnn(C)c1-c1cnc2c3c4cnn(C)c4ccc3n([C@H](c3ccccc3)C3CCOCC3)c2c1 .
Result: 27.1 min

---

# experiment summary: In vivo pharmacokinetics study, rat
# Parameters: species or system SD rat
# condition description: male, SD, plasma, PO 5 mg/kg
quantity measured: Tmax
# number then unit; no other words

Problem: Need Tmax of Cc1nnn(C)c1-c1cnc2c3c4cnn(C)c4ccc3n([C@H](c3ccccc3)C3CCOCC3)c2c1 , thanks.
Result: 1.67 h

---

# experiment summary: In vivo pharmacokinetics study, rat
# Design: species or system SD rat
# condition description: male, SD, plasma, IV 1 mg/kg, read-out: Vdss
quantity measured: Vd (L/kg)
Numbers only, in L/kg.

Problem: Could you share which Vd value was measured for Cc1nnn(C)c1-c1cnc2c3c4cnn(C)c4ccc3n([C@H](c3ccccc3)C3CCOCC3)c2c1 ?
Result: 3.27

---

# experiment summary: MTS assay of non-cancerous cells
# Assay type: cell-based, human
# condition description: human, HaCAT cells (immortalized keratinocytes), 24h; 1000 nM; read-out: Cell viability (Sup Fig.4a)
quantity measured: viability at 24 h, 1 µM (%)
Give bare numbers, in %.

Problem: Value lookup for viability at 24 h, 1 µM; key = Cc1nnn(C)c1-c1cnc2c3c4cnn(C)c4ccc3n([C@H](c3ccccc3)C3CCOCC3)c2c1
Result: 108

---

# experiment summary: MTS assay of non-cancerous cells
# Format: cell-based, human
# condition description: human, HaCAT cells (immortalized human keratinocytes), 48h; 1000 nM; read-out: Cell viability (Sup Fig.4b)
quantity measured: viability at 48 h, 1 µM
Remember to put the unit after the number in your answer.

Problem: Requested field: viability at 48 h, 1 µM. Item: Cc1nnn(C)c1-c1cnc2c3c4cnn(C)c4ccc3n([C@H](c3ccccc3)C3CCOCC3)c2c1
Result: 87.1%

---

# experiment summary: In vivo pharmacokinetics study, rat
# Design: species or system SD rat
# condition description: male, SD, plasma, po, 5 mg/kg, PO, 0.5 h, individual animals, LLOQ 1.00 ng/mL, read-out: Plasma Conc.
quantity measured: concentration at 0.5 h (ng/mL)
Answers are plain numbers, in ng/mL.

Problem: # input molecule: Cc1nnn(C)c1-c1cnc2c3c4cnn(C)c4ccc3n([C@H](c3ccccc3)C3CCOCC3)c2c1 ; wanted: its concentration at 0.5 h
Result: 56.8

---

# experiment summary: In vivo pharmacokinetics study, mouse
# condition description: male, BALB/c nude, plasma, IV 1.75 mg/kg
quantity measured: C0
Please provide the amount together with its unit, number first.

Problem: Any idea what C0 was measured for Cc1nnn(C)c1-c1cnc2c3c4cnn(C)c4ccc3n([C@H](c3ccccc3)C3CCOCC3)c2c1 [NHWD-870] ?
Result: 630 ng/mL

---

# experiment summary: Concentration in lungs and tumors of H526 xenograft model
# Assay type: in vivo, mouse
# condition description: female, BALB/c nude, mouse, tumor, oral, 3 mg/kg, Group 2, 3 mg/kg QD, 24h, mean; read-out: Mean Concentration in Tumor
quantity measured: concentration at 24 h (ng/g)
Answers are plain numbers, in ng/g.

Problem: I have this molecule here, Cc1nnn(C)c1-c1cnc2c3c4cnn(C)c4ccc3n([C@H](c3ccccc3)C3CCOCC3)c2c1 , and I need its recorded concentration at 24 h.
Result: 37.2
